Reported binding intensity values for a set of binders
molecular target: T1, human ROR2 expressed on the cell surface (human, UniProt Q01974 34-943); experiment: flow cytometry, BE(1)N cells (neuroblastoma); set-up: unit not given here
T1 construct: Endogenous ROR2 of human tumour cell lines; also called cell surface ROR2; ROR2 on tumour cell lines
T1 sequence (Q01974 34-943 limits assumed): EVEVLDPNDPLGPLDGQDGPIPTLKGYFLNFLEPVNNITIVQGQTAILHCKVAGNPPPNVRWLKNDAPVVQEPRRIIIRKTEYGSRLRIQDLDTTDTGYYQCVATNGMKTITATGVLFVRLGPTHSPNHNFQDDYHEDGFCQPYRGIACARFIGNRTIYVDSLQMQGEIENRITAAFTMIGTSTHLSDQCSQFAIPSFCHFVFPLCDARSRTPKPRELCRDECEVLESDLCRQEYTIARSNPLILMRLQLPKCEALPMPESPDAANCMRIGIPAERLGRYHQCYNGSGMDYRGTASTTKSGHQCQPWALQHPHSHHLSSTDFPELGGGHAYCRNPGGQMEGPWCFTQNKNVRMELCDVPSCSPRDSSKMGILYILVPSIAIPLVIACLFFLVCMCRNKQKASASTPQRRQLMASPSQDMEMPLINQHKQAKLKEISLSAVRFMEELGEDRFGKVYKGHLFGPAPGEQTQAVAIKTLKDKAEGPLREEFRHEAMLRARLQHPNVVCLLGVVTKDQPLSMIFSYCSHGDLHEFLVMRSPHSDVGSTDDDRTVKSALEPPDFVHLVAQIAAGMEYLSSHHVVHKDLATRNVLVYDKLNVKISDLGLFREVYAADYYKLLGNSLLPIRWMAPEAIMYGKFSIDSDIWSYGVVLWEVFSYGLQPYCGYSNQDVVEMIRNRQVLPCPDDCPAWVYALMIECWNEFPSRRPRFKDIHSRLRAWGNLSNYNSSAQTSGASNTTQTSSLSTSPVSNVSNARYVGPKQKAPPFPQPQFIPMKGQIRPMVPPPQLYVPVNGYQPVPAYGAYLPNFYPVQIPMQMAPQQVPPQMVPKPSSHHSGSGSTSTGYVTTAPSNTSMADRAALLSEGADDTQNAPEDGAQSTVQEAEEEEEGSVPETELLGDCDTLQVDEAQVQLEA
metricName: binding intensity

1. ROR2-241 full length human IgG1 antibody (antibody, V domains shown) VH: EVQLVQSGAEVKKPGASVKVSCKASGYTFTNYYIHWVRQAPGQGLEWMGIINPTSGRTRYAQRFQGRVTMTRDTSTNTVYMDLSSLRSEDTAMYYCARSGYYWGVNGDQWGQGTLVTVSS VL: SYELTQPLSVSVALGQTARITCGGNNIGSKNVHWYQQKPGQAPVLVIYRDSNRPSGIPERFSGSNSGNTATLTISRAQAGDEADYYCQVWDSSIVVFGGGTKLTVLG    352
2. ROR2-27 full length human IgG1 antibody (antibody, V domains shown, also called clone #27; clone #027 IgG1) VH: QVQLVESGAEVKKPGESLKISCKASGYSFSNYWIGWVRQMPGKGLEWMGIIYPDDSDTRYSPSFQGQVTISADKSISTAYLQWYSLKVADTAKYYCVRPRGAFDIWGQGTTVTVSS VL: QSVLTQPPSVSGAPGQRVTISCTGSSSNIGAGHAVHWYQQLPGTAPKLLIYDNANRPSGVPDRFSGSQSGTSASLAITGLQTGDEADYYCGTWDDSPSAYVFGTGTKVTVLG    244
3. ROR2-240 full length human IgG1 antibody (antibody, V domains shown, also called clone #240 IgG1) VH: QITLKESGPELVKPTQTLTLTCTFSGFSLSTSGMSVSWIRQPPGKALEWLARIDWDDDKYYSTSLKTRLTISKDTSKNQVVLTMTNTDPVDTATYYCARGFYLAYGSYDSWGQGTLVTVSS VL: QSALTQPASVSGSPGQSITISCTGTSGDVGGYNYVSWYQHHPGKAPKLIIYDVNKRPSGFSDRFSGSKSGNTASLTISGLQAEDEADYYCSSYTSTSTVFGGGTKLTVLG    279
4. ROR2-23 full length human IgG1 antibody (antibody, V domains shown, The light chain of clone 023 is labelled kappa; also called clone #23; clone #023 IgG1) VH: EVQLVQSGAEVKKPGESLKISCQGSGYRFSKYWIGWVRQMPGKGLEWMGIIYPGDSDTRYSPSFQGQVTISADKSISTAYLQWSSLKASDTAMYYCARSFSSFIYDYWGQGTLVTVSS VL: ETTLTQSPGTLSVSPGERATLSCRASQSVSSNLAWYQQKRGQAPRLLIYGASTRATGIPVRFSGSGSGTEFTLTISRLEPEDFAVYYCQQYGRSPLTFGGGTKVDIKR    273
5. ROR2-90 full length human IgG1 antibody (antibody, V domains shown, also called clone #90; antibody #90) VH: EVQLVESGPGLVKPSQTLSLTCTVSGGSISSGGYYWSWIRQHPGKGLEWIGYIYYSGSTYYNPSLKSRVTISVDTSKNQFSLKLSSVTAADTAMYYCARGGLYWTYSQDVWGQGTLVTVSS VL: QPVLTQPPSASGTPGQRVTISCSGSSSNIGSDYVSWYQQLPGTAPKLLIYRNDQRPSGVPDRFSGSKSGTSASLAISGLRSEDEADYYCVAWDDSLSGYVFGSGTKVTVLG    302
